acute toxicity value (LD50): recorded values
- Test system: mice
- test name: Acute toxicity (LD50) by intraperitoneal administration in mice
- Assay type: in vivo
- applied conditions: mice (male, 20 g)

{"compound": "CCCCN(C)C(=O)[C@H](CCCNC(=N)N)NS(=O)(=O)c1cccc2c(N(C)C)cccc12 [reference compound]", "acute toxicity value (LD50)": "70 milligrams per kilogram"}

Proceeding to the next compound to report its acute toxicity value (LD50).
QUERY: Supply acute toxicity value (LD50) measured with mice for CCCCNC(=O)[C@H](CCCNC(=N)N)NS(=O)(=O)c1cccc2c(N(C)C)cccc12 [N^2 -dansyl-N-butyl-L-argininamide, reference compound] .
RESULT: 75 milligrams per kilogram
